Hey, just so you know, these numbers are from the supplement of paper PMC8728848.

Biological target: Neu5Gc(a2-6)GalNAc
Test: glycan array binding signal (z-score within array); higher = stronger binding
Conditions: glycan notation: IUPAC condensed, linker removed
The full list was thinned out, with the strongest signals kept by preference.
Measured metric: glycan array binding signal (z-score)
Give bare numbers.

Below, 10 binders whose answers are already recorded.
Binder	glycan array binding signal (z-score)
CVN (Nostoc ellipsosporum), P81180 (protein) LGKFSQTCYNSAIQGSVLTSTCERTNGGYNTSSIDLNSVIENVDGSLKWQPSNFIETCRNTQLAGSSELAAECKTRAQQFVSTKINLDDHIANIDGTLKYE	-0.308
CLEC9a (Mus musculus), Q8BRU4 (protein) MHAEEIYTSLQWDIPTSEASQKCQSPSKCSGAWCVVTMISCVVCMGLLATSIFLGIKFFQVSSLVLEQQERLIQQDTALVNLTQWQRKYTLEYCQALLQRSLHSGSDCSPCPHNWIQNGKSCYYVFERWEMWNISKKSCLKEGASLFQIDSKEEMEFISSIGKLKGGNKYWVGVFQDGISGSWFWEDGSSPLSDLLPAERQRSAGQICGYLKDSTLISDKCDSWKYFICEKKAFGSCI	-0.83
PFL (Pseudomonas fluorescens) (protein) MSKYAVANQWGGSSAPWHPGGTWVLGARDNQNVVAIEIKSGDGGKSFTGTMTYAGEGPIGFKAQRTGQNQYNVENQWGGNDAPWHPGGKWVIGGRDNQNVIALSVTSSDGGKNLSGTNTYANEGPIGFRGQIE	-0.114
cFel (Cyprinus carpio), P68512 (protein) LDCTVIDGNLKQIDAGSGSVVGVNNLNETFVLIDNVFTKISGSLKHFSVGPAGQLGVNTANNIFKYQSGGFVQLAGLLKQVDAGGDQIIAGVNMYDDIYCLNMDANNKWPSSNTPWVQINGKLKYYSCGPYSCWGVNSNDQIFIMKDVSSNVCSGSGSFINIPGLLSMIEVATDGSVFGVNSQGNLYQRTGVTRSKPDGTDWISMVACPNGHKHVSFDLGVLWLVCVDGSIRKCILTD	0.828
HHL-1 (Homo sapiens), P07306 (protein) TKEYQDLQHLDNEESDHHQLRKGPPPPQPLLQRLCSGPRLLLLSLGLSLLLLVVVCVIGSQNSQLQEELRGLRETFSNFTASTEAQVKGLSTQGGNVGRKMKSLESQLEKQQKDLSEDHSSLLLHVKQFVSDLRSLSCQMAALQGNGSERTCCPVNWVEHERSCYWFSRSGKAWADADNYCRLEDAHLVVVTSWEEQKFVQHHIGPVNTWMGLHDQNGPWKWVDGTDYETGFKNWRPEQPDDWYGHGLGGGEDCAHFTDDGRWNDDVCQRPYRWVCETELDKASQEPPLL	-0.536
Sebin2 (Coprinopsis cinerea), A8PE78 (protein) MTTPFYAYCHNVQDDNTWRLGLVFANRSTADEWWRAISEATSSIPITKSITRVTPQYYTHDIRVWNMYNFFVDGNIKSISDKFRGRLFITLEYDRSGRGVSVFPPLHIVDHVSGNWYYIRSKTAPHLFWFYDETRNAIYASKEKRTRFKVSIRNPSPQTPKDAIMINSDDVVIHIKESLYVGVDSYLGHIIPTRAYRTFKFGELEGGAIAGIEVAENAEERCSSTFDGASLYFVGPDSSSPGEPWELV	-0.242
OS9-MRH (Homo sapiens), Q13438 (protein) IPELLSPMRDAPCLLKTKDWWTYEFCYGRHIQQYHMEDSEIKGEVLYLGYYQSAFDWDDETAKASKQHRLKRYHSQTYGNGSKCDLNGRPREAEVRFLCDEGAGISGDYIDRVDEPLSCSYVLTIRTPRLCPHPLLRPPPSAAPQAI	1.14
Clrb (Mus musculus) (protein) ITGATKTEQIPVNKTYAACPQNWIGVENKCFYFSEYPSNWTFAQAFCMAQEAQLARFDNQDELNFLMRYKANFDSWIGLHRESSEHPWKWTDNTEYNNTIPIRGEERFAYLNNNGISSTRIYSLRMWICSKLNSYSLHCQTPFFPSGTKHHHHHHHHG	-0.377
Intelectin 1 (Homo sapiens), Q8WWA0 (protein) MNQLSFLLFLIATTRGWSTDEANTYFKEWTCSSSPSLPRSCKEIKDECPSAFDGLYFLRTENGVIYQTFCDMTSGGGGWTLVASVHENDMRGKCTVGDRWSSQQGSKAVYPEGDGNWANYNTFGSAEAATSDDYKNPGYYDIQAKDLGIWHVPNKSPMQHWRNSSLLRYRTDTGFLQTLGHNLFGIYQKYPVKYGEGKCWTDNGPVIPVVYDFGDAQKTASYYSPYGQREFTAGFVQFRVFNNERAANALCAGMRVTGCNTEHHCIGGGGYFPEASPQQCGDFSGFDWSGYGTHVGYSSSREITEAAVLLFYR	0.523
Ovorubin (Pomacea canaliculata), J7I2T6 (protein) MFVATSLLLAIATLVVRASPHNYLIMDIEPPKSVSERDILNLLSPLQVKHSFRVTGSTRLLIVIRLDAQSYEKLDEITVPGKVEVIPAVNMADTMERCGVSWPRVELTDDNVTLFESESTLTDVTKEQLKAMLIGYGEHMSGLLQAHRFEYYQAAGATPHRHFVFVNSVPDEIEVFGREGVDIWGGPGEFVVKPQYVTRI	0.691

Hi team, please reply with glycan array binding signal (z-score) for each item in this list.
1. S100A12 (Homo sapiens), P80511 (protein) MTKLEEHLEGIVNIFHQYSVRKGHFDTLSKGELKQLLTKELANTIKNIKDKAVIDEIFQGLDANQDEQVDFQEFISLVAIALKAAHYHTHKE
2. MpAFP NterminalRI GFP (Marinomonas primoryensis) (protein) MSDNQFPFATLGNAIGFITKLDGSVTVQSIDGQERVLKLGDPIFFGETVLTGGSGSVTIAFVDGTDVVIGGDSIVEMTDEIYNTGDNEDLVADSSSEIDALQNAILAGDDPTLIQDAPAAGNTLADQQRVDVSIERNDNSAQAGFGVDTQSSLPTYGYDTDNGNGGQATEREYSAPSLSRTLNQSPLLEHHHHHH

[-0.009, 3.75]
